ASSAY_INFO: systemic availability study in dogs, testosterone, RIA method (Example 40)
Assay type: in vivo
CONDITIONS_USED: female, bred hound, dog, plasma, other: buccal (film disc applied to the buccal mucosa), 0.8 mg per disc; mean of three dogs, buccal ½ inch disc of Example 39 film, 0.8 mg testosterone per disc, time 360 minutes; read-out: systemic plasma level, Mean
VALUE_TYPE: concentration at 360 min (ng/mL)
Your answer is read as ng/mL, so omit the unit and give the number.

Incoming: Consider the compound shown here: C[C@]12CC[C@H]3[C@@H](CCC4=CC(=O)CC[C@@]43C)[C@@H]1CC[C@@H]2O [testosterone] What is its recorded concentration at 360 min?
Outgoing: 0.12

====

ASSAY_INFO: systemic availability study in dogs, testosterone, RIA method (Example 40)
Format: in vivo
CONDITIONS_USED: female, bred hound, dog, plasma, other: buccal (film disc applied to the buccal mucosa), 0.8 mg per disc; mean of three dogs, buccal ½ inch disc of Example 39 film, 0.8 mg testosterone per disc, time 720 minutes; read-out: systemic plasma level, Mean
VALUE_TYPE: concentration at 720 min (ng/mL)
Your answer is read as ng/mL, so omit the unit and give the number.

Incoming: Consider the compound shown here: "C[C@]12CC[C@H]3[C@@H](CCC4=CC(=O)CC[C@@]43C)[C@@H]1CC[C@@H]2O" What is its recorded concentration at 720 min?
Outgoing: 0.01

====

ASSAY_INFO: systemic availability study in dogs, testosterone, RIA method (Example 40)
Assay type: in vivo
CONDITIONS_USED: female, bred hound, dog, plasma, other: buccal (film disc applied to the buccal mucosa), 0.8 mg per disc; mean of three dogs, buccal ½ inch disc of Example 39 film, 0.8 mg testosterone per disc, time 150 minutes; read-out: systemic plasma level, Mean
VALUE_TYPE: concentration at 150 min (ng/mL)
Your answer is read as ng/mL, so omit the unit and give the number.

Incoming: Consider the compound shown here: C[C@]12CC[C@H]3[C@@H](CCC4=CC(=O)CC[C@@]43C)[C@@H]1CC[C@@H]2O [testosterone] What is its recorded concentration at 150 min?
Outgoing: 3.2
